- ASSAY_TARGET: T1, CmPSRB1 (recombinant PSRB1) (Cucurbita maxima)
- T1 chain: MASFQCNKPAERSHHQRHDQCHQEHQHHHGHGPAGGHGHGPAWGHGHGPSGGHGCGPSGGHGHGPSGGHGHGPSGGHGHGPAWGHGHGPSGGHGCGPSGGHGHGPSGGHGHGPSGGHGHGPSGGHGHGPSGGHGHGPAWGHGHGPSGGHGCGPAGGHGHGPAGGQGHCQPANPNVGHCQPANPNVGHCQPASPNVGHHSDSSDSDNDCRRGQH
- PROTOCOL_DESCRIPTION: EMSA; competition gel shift; 20 mM Hepes pH 7.0, 50 mM KCl, 1 mM EDTA, 30 C
- CONDITION_SET: tags: none (native, pET15b, E. coli); 3' 2 nt overhang
MEASURED_ENDPOINT: Kd (µM)
One number for each entry, in µM.

Ask | Data request, read-out Kd, for 25 nt dsRNA 3' 2 nt overhang (FK221/FK224) (dsRNA) RNA 1: GGAAAACUACCUGUUCCAUGGCCAA RNA 2: GGCCAUGGAACAGGUAGUUUUCCAG
Reply | 30.6
